Source of measurements: PubChem BioAssay AID1745844

system: rodent lifetime carcinogenesis bioassay, tumor incidence TD50; assay: carcinogenic potency in animals, long-term in vivo studies, CPDB compilation (AID 1745844); conditions: mouse; strain Swiss albino; males; in drinking water; site: blood vessels; lesion: several types; types named in the paper; dosed 112 weeks; study length 112 weeks
metric_name: TD50

Need TD50, item "NNc1ccccc1" 70.6 mg/kg/day

###

system: rodent lifetime carcinogenesis bioassay, tumor incidence TD50; experiment: carcinogenic potency in animals, long-term in vivo studies, CPDB compilation (AID 1745844); details: mouse; strain ddNi; males; in feed; site: liver; lesion: hepatoma; dosed 160 weeks; study length 160 weeks
metric_name: TD50

Need TD50, item "CC[C@@H]1NC(=O)[C@@H]2[C@H](Cl)[C@H](Cl)CN2C(=O)[C@H](CO)NC(=O)C[C@H](c2ccccc2)NC(=O)[C@H](CO)NC1=O" 99.5 mg/kg/day

###

system: rodent lifetime carcinogenesis bioassay, tumor incidence TD50; assay: carcinogenic potency in animals, long-term in vivo studies, CPDB compilation (AID 1745844); conditions: rat; strain Fischer 344; males; in drinking water; site: colon, ascending + colon + colon, descending; lesion: adenomatous polyp + adenocarcinoma; dosed 97 weeks; study length 97 weeks
metric_name: TD50

Need TD50, item "COc1cc(-c2ccc(N=Nc3c(S(=O)(=O)O)cc4cc(S(=O)(=O)O)cc(N)c4c3O)c(OC)c2)ccc1N=Nc1c(S(=O)(=O)O)cc2cc(S(=O)(=O)O)cc(N)c2c1O" 162 mg/kg/day

###

tested on: rodent lifetime carcinogenesis bioassay, tumor incidence TD50; test: carcinogenic potency in animals, long-term in vivo studies, CPDB compilation (AID 1745844); settings: mouse; strain Swiss; females; i.p.; site: any site (literature study); lesion: benign tumor; dosed 26 weeks; study length 76 weeks
metric_name: TD50 (mg/kg/day)
Please reply with the bare figure in mg/kg/day and do not write the unit itself.

Need TD50, item "CNNCc1ccc(C(=O)NC(C)C)cc1" 27.8

###

system: rodent lifetime carcinogenesis bioassay, tumor incidence TD50; assay: carcinogenic potency in animals, long-term in vivo studies, CPDB compilation (AID 1745844); details: rat; strain Wistar; males; in feed; site: liver; lesion: cholangioma; dosed 104 weeks; study length 104 weeks
Calls of active or inactive are those of the source. How the calls were made is not given here.
metric_name: TD50

Need TD50, item "CCCCC/C=C\C/C=C\CCCCCCCC(=O)O[C@H](COC(=O)CCCCCCCCCCCCCCC)COP(=O)([O-])OCC[N+](C)(C)C" 42200 mg/kg/day (inactive)

###

tested on: rodent lifetime carcinogenesis bioassay, tumor incidence TD50; assay: carcinogenic potency in animals, long-term in vivo studies, CPDB compilation (AID 1745844); conditions: mouse; strain Swiss albino; males; in drinking water; site: lung; lesion: adenoma; dosed 120 weeks; study length 120 weeks
metric_name: TD50 (mg/kg/day)
Please reply with the bare figure in mg/kg/day and do not write the unit itself.

Need TD50, item "NNc1ccc(C(=O)O)cc1" 597

###

system: rodent lifetime carcinogenesis bioassay, tumor incidence TD50; test: carcinogenic potency in animals, long-term in vivo studies, CPDB compilation (AID 1745844); conditions: rat; strain Sprague-Dawley; females; i.p.; site: any site (literature study); lesion: several types; types named in the paper; dosed 52 weeks; study length 80 weeks
metric_name: TD50 (mg/kg/day)
Please reply with the bare figure in mg/kg/day and do not write the unit itself.

Need TD50, item "COc1cc2c(c3c1c(=O)c1ccccc1n3C)C=CC(C)(C)O2" 0.568
